target: human GLP-1 receptor (human, UniProt P43220)
Sequence (P43220 24-463): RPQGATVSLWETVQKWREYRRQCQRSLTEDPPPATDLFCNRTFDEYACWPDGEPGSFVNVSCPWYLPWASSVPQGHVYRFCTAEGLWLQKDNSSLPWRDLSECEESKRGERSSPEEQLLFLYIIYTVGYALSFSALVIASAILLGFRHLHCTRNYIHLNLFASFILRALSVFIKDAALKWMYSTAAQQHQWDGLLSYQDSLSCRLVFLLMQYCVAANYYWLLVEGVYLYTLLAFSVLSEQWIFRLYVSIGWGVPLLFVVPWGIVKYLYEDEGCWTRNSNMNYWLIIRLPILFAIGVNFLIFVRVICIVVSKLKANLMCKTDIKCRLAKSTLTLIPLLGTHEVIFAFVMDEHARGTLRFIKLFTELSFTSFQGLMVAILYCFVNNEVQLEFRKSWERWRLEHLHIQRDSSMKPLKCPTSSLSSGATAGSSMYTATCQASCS
*1 amine or outer side, *2 acyl side, *3 side chain or, on linkers, in order; H or OH if unused. Where no end group is shown, it is not given here. Side-chain parts run from the residue outwards. [ ]: non-standard residue; d: D form. The star is where a group is joined. 9‑(3-carboxyphenoxy)nonanoyl = O=C(O)c1cccc(OCCCCCCCCC(=O)*)c1; Undecanoyl(11-OPh(4-COOH)) = O=C(O)c1ccc(OCCCCCCCCCCC(=O)*)cc1; Decanoyl(10-(4-HOOC-PhO)) = O=C(O)c1ccc(OCCCCCCCCCC(=O)*)cc1; Decanoyl(10-O(3-COOH-Ph)) = O=C(O)c1cccc(OCCCCCCCCCC(=O)*)c1; γGlu = O=C(O)[C@H](CCC(=O)[*:2])N[*:1]; C14 diacid = O=C(O)CCCCCCCCCCCCC(=O)*; AEEA = NCCOCCOCC(=O)O; Aib = CC(C)(N)C(=O)O
Value Type: EC50/pM (1% HSA) (pM)

[[record]]
binder = "H[Aib]EGTFTSDVSSYLEEQAAREFIAWLVRGK([AEEA-γGlu-γGlu-C14 diacid])K([AEEA-γGlu-γGlu-C14 diacid]) [GLP-1 derivative of Example 13]"
readout_number = 18

[[record]]
binder = "H[Aib]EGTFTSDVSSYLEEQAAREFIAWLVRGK([AEEA-AEEA-γGlu-C14 diacid])K([AEEA-AEEA-γGlu-C14 diacid]) [GLP-1 derivative of Example 5]"
readout_number = 22

[[record]]
binder = "HGEGTFTSDVSSYLEEQAAREFIAWLVRGK([AEEA-AEEA-γGlu-Undecanoyl(11-OPh(4-COOH))])K([AEEA-AEEA-γGlu-Undecanoyl(11-OPh(4-COOH))]) [GLP-1 derivative of Example 17]"
readout_number = 199

[[record]]
binder = "H[Aib]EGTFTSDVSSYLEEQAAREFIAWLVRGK([AEEA-AEEA-AEEA-AEEA-γGlu-Decanoyl(10-O(3-COOH-Ph))])K([AEEA-AEEA-AEEA-AEEA-γGlu-Decanoyl(10-O(3-COOH-Ph))]) [GLP-1 derivative of Example 22]"
readout_number = 7.7

[[record]]
binder = "H[Aib]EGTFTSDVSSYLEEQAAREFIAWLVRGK([AEEA-AEEA-γGlu-γGlu-Undecanoyl(11-OPh(4-COOH))])K([AEEA-AEEA-γGlu-γGlu-Undecanoyl(11-OPh(4-COOH))]) [GLP-1 derivative of Example 18]"
readout_number = 29

[[record]]
binder = "H[Aib]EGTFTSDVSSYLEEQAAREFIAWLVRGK([AEEA-AEEA-γGlu-9‑(3-carboxyphenoxy)nonanoyl])K([AEEA-AEEA-γGlu-9‑(3-carboxyphenoxy)nonanoyl]) [GLP-1 derivative of Example 23]"
readout_number = 15

[[record]]
binder = "H[Aib]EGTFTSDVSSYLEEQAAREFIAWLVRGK([AEEA-AEEA-γGlu-Decanoyl(10-(4-HOOC-PhO))])K([AEEA-AEEA-γGlu-Decanoyl(10-(4-HOOC-PhO))]) [GLP-1 derivative of Example 3]"
readout_number = 28

[[record]]
binder = "H[Aib]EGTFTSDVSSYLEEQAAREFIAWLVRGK([AEEA-AEEA-AEEA-AEEA-γGlu-C14 diacid])K([AEEA-AEEA-AEEA-AEEA-γGlu-C14 diacid]) [GLP-1 derivative of Example 20]"
readout_number = 5.8

